# Target or system: T1, human PDGFRb.mFc (human)
# T1 construct: Soluble dimeric construct with mouse Fc; also called hPDGFRb.mFc; soluble human PDGFR-beta.mFc
# T1 chain: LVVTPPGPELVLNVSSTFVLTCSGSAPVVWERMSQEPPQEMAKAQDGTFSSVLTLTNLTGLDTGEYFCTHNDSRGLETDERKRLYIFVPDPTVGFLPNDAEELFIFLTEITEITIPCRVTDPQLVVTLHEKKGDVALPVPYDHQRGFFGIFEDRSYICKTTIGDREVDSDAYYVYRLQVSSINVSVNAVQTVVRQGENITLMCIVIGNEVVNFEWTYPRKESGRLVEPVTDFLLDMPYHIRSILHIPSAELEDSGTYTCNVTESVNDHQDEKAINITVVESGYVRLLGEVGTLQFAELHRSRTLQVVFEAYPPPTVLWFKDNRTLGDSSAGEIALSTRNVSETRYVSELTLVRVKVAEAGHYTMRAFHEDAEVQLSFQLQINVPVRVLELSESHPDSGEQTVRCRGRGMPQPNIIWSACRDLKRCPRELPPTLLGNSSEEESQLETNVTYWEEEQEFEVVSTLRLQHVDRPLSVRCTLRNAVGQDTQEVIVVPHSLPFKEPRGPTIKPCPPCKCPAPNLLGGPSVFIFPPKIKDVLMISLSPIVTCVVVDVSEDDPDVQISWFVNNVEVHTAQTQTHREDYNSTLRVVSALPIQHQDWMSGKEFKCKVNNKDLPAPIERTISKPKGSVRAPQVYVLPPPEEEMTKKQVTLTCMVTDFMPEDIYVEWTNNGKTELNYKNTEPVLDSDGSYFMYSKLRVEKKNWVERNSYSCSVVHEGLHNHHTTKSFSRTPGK
# Protocol text: SPR, mAb captured, 25 C
Measured parameter: t1/2 (min)
Your answer should be a plain number; it is taken to be in min.

GET /values?readout=t1/2&item= H2M3368N (antibody, V domains shown, mouse Fc (H2M prefix; isotype not spelled out)) VH: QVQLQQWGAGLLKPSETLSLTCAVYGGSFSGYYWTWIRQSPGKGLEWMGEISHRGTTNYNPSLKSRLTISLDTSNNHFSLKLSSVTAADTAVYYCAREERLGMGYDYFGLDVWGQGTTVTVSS VL: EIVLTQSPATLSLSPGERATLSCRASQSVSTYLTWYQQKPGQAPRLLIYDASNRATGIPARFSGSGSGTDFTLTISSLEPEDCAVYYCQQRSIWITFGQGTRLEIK
313
